Molecular target: Factor X (FX), P00742
Sequence (P00742 whole entry, looked up): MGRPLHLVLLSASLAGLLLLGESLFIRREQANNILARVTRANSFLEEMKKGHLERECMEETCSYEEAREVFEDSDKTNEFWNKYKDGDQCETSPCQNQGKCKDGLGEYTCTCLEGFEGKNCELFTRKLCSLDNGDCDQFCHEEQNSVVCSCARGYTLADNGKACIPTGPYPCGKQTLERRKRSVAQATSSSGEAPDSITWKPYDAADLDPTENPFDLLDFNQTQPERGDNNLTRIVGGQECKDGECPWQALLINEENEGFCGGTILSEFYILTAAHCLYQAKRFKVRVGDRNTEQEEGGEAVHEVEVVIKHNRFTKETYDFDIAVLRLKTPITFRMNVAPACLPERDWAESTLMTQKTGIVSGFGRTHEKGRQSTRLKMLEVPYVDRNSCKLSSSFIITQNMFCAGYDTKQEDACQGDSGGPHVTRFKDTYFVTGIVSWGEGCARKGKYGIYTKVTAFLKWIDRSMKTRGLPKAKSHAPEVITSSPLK
reported endpoint: KM

Report KM for every entry below.
1. FIXa R318Y/R338E/R403E (protein) chain 1: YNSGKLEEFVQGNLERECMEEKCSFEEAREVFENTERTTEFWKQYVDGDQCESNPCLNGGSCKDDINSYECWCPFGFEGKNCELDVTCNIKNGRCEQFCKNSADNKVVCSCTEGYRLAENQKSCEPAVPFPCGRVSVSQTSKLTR chain 2: VVGGEDAKPGQFPWQVVLNGKVDAFCGGSIVNEKWIVTAAHCVETGVKITVVAGEHNIEETEHTEQKRNVIRIIPHHNYNAAINKYNHDIALLELDEPLVLNSYVTPICIADKEYTNIFLKFGSGYVSGWGRVFHKGYSALVLQYLRVPLVDRATCLESTKFTIYNNMFCAGFHEGGRDSCQGDSGGPHVTEVEGTSFLTGIISWGEECAMKGKYGIYTKVSEYVNWIKEKTKLT
2. FIXa-Y155F/K247N/N249S/R338E/R403E (protein) chain 1: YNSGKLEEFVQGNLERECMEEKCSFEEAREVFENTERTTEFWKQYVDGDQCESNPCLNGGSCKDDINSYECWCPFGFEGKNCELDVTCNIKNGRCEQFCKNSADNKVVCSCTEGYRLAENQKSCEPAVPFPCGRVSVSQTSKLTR chain 2: VVGGEDAKPGQFPWQVVLNGKVDAFCGGSIVNEKWIVTAAHCVETGVKITVVAGEHNIEETEHTEQNRSVIRIIPHHNYNAAINKYNHDIALLELDEPLVLNSYVTPICIADKEYTNIFLKFGSGYVSGWGRVFHKGRSALVLQYLRVPLVDRATCLESTKFTIYNNMFCAGFHEGGRDSCQGDSGGPHVTEVEGTSFLTGIISWGEECAMKGKYGIYTKVSEYVNWIKEKTKLT
3. FIXa-R318Y/R338E/N346D/R403E/E410N (protein) chain 1: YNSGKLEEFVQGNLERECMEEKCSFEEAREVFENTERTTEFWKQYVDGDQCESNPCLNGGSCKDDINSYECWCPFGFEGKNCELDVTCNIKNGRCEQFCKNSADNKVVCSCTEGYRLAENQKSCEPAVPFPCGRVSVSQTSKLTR chain 2: VVGGEDAKPGQFPWQVVLNGKVDAFCGGSIVNEKWIVTAAHCVETGVKITVVAGEHNIEETEHTEQKRNVIRIIPHHNYNAAINKYNHDIALLELDEPLVLNSYVTPICIADKEYTNIFLKFGSGYVSGWGRVFHKGYSALVLQYLRVPLVDRATCLESTKFTIYDNMFCAGFHEGGRDSCQGDSGGPHVTEVEGTSFLTGIISWGEECAMKGKYGIYTKVSEYVNWIKNKTKLT
4. FIXa-D104N/K106S/K247N/N249S/N260S (protein) chain 1: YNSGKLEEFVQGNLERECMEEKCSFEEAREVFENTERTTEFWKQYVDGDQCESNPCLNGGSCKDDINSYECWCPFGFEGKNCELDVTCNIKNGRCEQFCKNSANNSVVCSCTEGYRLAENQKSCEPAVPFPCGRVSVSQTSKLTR chain 2: VVGGEDAKPGQFPWQVVLNGKVDAFCGGSIVNEKWIVTAAHCVETGVKITVVAGEHNIEETEHTEQNRSVIRIIPHHNYSAAINKYNHDIALLELDEPLVLNSYVTPICIADKEYTNIFLKFGSGYVSGWGRVFHKGRSALVLQYLRVPLVDRATCLRSTKFTIYNNMFCAGFHEGGRDSCQGDSGGPHVTEVEGTSFLTGIISWGEECAMKGKYGIYTKVSRYVNWIKEKTKLT

Result string:
1: 0.0597 µM; 2: 0.0409 µM; 3: 0.0777 µM; 4: 0.0612 µM
